The entries below come with measured KM values attached.
B1: glmS ribozyme (parent)
chain: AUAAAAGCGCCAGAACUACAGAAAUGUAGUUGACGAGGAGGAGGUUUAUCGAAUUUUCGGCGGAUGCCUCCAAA

- Variants of: B1
- TEST NAME: KM; higher = weaker cofactor use; RNA array
- RUN PARAMETERS: with glucosamine-6-phosphate
REPORTED ENDPOINT: KM (µM)

>  <MUTATION DESCRIPTOR>
G29A C67G

>  <TEST RESULT>
1710

$$$$
>  <MUTATION DESCRIPTOR>
G41U G66U

>  <TEST RESULT>
582

$$$$
>  <MUTATION DESCRIPTOR>
C16U A39U

>  <TEST RESULT>
9390

$$$$
>  <MUTATION DESCRIPTOR>
A6G A53U

>  <TEST RESULT>
1940

$$$$
>  <MUTATION DESCRIPTOR>
U30C G66A

>  <TEST RESULT>
1860

$$$$
>  <MUTATION DESCRIPTOR>
A15U C61A

>  <TEST RESULT>
829

$$$$
>  <MUTATION DESCRIPTOR>
U49G C71U

>  <TEST RESULT>
2160

$$$$
>  <MUTATION DESCRIPTOR>
A6C A53U

>  <TEST RESULT>
3600

$$$$
>  <MUTATION DESCRIPTOR>
U55C G59A

>  <TEST RESULT>
4900

$$$$
>  <MUTATION DESCRIPTOR>
G9U A39U C61A

>  <TEST RESULT>
503

$$$$
>  <MUTATION DESCRIPTOR>
A14C U65A

>  <TEST RESULT>
3100

$$$$
